# Tested on: Mast/stem cell growth factor receptor Kit (Homo sapiens), P10721 [D816V]
# Sequence (P10721 whole entry D816V): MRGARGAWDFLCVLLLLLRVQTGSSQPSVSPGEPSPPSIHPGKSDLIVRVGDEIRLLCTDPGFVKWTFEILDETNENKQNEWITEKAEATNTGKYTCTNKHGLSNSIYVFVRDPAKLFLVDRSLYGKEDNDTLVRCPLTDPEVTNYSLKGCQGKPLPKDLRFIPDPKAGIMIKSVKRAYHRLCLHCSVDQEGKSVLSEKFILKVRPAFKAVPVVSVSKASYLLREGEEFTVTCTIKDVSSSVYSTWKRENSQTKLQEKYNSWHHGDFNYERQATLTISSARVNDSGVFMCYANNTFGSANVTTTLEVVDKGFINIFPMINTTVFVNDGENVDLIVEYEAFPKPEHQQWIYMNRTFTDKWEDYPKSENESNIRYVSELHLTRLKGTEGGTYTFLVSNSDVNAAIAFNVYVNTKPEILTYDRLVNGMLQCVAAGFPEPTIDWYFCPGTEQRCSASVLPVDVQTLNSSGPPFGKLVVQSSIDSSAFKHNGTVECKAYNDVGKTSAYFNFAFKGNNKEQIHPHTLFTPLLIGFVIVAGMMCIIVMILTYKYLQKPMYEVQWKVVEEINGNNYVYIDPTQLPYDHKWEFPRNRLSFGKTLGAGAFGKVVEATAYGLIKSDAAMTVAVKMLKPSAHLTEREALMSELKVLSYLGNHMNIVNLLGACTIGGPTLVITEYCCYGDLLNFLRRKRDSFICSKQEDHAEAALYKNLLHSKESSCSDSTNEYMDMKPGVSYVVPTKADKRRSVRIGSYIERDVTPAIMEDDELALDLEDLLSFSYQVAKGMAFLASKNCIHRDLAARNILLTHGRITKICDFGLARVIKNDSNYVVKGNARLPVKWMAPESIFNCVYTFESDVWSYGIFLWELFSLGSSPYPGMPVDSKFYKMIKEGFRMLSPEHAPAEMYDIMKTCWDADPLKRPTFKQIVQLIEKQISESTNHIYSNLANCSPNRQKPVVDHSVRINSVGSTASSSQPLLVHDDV
# REPORTED_CONDITIONS: at 1 µM

| SMILES_STRING | UNIT | inhibition |
| --- | --- | --- |
| CS(=O)(=O)CCNCc1nc(-c2ccc3ncnc(Nc4ccc(OCc5cccc(C(F)(F)F)c5)cc4)c3c2)cs1 | % | 1.52 |
| C[C@@H](Oc1cc(-n2cnc3ccc(OC[C@@H](O)CO)cc32)sc1C(N)=O)c1ccccc1Cl | % | 1.58 |
| Cc1ccc(Nc2ccnc(Nc3cccc(C(N)=O)c3)n2)cc1O | % | 54.3 |
| Cc1ccc(O)cc1Nc1ccnc2ccc(S(C)(=O)=O)cc12 | % | 84.5 |
| O=C(Nc1ccc(Oc2ccc3[nH]c(NC(=O)c4ccco4)nc3c2)cc1)Nc1cc(C(F)(F)F)ccc1F | % | -1.72 |
| CN(C)c1cc2c(Nc3ccc4c(cnn4Cc4ccccc4)c3)ncnc2cn1 | % | 2.07 |
| COc1cccc(-n2nc(C)c3c(N/N=C(\C)c4ccncc4)ncnc32)c1 | % | -0.84 |
| NS(=O)(=O)c1cccc(-c2cc3ccncc3cc2OCc2ccccc2)c1 | % | 5.87 |
